IC50 reference
- target: human active recombinant Caspase-3 (Homo sapiens)
- experiment: In vitro caspase activity and inhibition assay (IC50), Caspase-3
- Type: biochemical
Residues, ends and D or L forms follow the SMILES beside them. *: point of attachment. X1 = O=C(O)CC(N*)C(=O)COc1c(F)cccc1F; Quinaldoyl = O=C(c1ccc2ccccc2n1)*
quantity: IC50 (nM)

INSERT INTO assay_data (compound, recorded_value) VALUES
  ('CC(=O)N[C@H](C(=O)N[C@@H](CC(=O)O)C(=O)N[C@H](C(=O)N1CC[C@@H](OC(C)C)[C@@H]1C(=O)N[C@H]1CC(=O)OC1O)C(C)C)C(C)C (stereo partly drawn) [c33, reference compound]', 6720),
  ('CC(=O)NC(C(=O)NC(CC(=O)O)C(=O)NC(C(=O)N1CCC(c2ccccc2)C1C(=O)NC1CC(=O)OC1O)C(C)C)C(C)C (stereo not drawn) [k33, reference compound]', 1960),
  ('CC(C)[C@H](NC(=O)c1ccc2ccccc2n1)C(=O)N[C@@H](CC(=O)O)C(=O)N[C@H](C(=O)N[C@@H](C)C(=O)NC(CC(=O)O)C(=O)COc1c(F)cccc1F)C(C)C (stereo partly drawn) [Δ2Me-TRP601, Quinolin-2-carbonyl-VDVAD-CH2-O(2,6F2)Ph, reference compound] (Quinaldoyl-VDVA-X1)', 0.31);

* * *

- target: recombinant human Casp2 (Homo sapiens)
- Sequence (P42575 170-325 limits assumed): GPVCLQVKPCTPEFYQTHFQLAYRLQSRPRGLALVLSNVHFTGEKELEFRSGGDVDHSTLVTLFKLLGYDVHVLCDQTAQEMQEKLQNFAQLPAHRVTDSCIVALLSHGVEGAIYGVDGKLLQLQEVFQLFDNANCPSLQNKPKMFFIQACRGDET
- Sequence (P42575 348-452 limits assumed): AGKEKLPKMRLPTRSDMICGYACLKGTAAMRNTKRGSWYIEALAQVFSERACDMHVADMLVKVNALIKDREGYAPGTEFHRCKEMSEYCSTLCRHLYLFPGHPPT
- experiment: Enzyme mechanistic studies (Ki, k3, k3/KI), Caspase-2
- Assay type: biochemical
- measurement-context: reversible competitive inhibitors, Lineweaver-Burk; read-out: Enzyme assays Casp2 Ki
pKi: −log10 of the molar value.
quantity: pKi

INSERT INTO assay_data (compound, recorded_value) VALUES
  ('CC(=O)NC(C(=O)NC(CC(=O)O)C(=O)NC(C(=O)N1CCC(c2ccccc2)C1C(=O)NC1CC(=O)OC1O)C(C)C)C(C)C (stereo not shown) [k33, reference compound]', 7.04),
  ('CC(=O)N[C@H](C(=O)N[C@@H](CC(=O)O)C(=O)N[C@H](C(=O)N1CCc2ccc(C)cc2[C@@H]1C(=O)N[C@H]1CC(=O)OC1O)C(C)C)C(C)C (stereo partly shown) [q33, reference compound]', 7.62),
  ('CC(=O)N[C@H](C(=O)N[C@@H](CC(=O)O)C(=O)N[C@H](C(=O)N1CC[C@@H](OC(C)C)[C@@H]1C(=O)N[C@H]1CC(=O)OC1O)C(C)C)C(C)C (stereo partly shown) [c33, reference compound]', 6.91),
  ('CC(=O)N[C@H](C(=O)N[C@@H](CC(=O)O)C(=O)N[C@H](C(=O)N1CC[C@H](CC(C)(C)C)[C@@H]1C(=O)N[C@H]1CC(=O)OC1O)C(C)C)C(C)C (stereo partly shown) [h33, reference compound]', 7.96);

* * *

- target: recombinant human Casp3 (Homo sapiens, UniProt P42574)
- Sequence (P42574 29-175 limits assumed): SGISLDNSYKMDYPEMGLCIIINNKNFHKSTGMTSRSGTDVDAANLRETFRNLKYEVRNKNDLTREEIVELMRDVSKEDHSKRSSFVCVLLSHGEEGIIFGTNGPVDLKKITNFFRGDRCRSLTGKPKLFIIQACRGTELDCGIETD
- Sequence (P42574 176-277 limits assumed): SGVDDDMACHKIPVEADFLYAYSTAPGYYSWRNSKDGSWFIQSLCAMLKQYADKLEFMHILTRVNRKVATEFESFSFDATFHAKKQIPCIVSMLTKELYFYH
- experiment: Enzyme mechanistic studies (Ki, k3, k3/KI), Caspase-3
- Format: biochemical
- measurement-context: reversible competitive inhibitors, Lineweaver-Burk; read-out: Enzyme assays Casp3 Ki (converted)
- Protocol: For reversible inhibitors, the mechanisms of inhibition were determined by varying substrate and inhibitor concentrations and using Lineweaver−Burk representations to determine the inhibition constants Ki of competitive inhibitors (Ki = [E][I]/[EI]). […] KI and k3 are the kinetic constants characterizing the inactivation process and the k3/KI ratio is an index of the inhibitory potency. […] Briefly, the enzyme activities were measured continuously for 120 min. […]
Ki reference
quantity: Ki

INSERT INTO results (molecule, recorded_value) VALUES
  ('CC(=O)N[C@H](C(=O)N[C@@H](CC(=O)O)C(=O)N[C@H](C(=O)N1CC[C@H](CC(C)(C)C)[C@@H]1C(=O)N[C@H]1CC(=O)OC1O)C(C)C)C(C)C (stereo partly shown) [h33, reference compound]', '6.51 µM'),
  ('CC(=O)N[C@H](C(=O)N[C@@H](CC(=O)O)C(=O)N[C@H](C(=O)N1CC[C@@H](OC(C)C)[C@@H]1C(=O)N[C@H]1CC(=O)OC1O)C(C)C)C(C)C (stereo partly shown) [c33, reference compound]', '2.44 µM'),
  ('CC(=O)NC(C(=O)NC(CC(=O)O)C(=O)NC(C(=O)N1CCC(c2ccccc2)C1C(=O)NC1CC(=O)OC1O)C(C)C)C(C)C (stereo not shown) [k33, reference compound]', '2.77 µM'),
  ('CC(=O)N[C@H](C(=O)N[C@@H](CC(=O)O)C(=O)N[C@H](C(=O)N1CCc2ccc(C)cc2[C@@H]1C(=O)N[C@H]1CC(=O)OC1O)C(C)C)C(C)C (stereo partly shown) [q33, reference compound]', '2.37 µM');
